Origin of the recorded values: patent US9920074B2

- target: Btk (Tyr223) phosphorylation in Ramos cells (Homo sapiens)
- Construct: endogenous in cells; host or cells: Ramos cells (ATCC)
- Sequence (Q06187 whole entry): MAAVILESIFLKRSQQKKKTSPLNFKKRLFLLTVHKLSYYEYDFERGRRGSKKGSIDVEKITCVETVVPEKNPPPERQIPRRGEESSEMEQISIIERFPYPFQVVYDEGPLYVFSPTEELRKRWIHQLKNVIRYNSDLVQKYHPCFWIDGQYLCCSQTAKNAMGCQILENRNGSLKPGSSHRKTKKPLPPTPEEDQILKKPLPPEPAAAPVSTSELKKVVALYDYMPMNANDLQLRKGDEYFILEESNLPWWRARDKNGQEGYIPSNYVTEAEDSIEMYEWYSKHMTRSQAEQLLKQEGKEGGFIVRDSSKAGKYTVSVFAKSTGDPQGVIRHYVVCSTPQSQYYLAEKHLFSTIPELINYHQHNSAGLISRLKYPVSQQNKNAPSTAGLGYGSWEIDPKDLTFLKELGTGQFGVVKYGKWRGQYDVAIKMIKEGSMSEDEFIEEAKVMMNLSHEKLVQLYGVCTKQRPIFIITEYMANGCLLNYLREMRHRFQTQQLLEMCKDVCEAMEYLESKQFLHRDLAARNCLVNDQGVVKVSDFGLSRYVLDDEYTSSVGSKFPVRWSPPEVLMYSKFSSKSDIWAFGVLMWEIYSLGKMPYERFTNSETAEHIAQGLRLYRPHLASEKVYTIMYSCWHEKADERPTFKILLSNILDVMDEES
- protocol-notes: Western blotting assay for Btk (Example 73)
- Assay type: cell-based
- run-conditions: 45 min, 6 μg/mL anti-IgM, read-out: Btk Inhibition
- Protocol: All cell lines were obtained from the American Type Culture Collection and were maintained at 37° C. with 5% CO2. Ramos cell line was maintained in media supplemented with 10% fetal bovine serum, penicillin (100 units/mL) and streptomycin (100 μg/mL). NK-92 cell line was maintained in media supplemented with 10% fetal bovine serum and 10% horse serum, penicillin (100 units/mL) and streptomycin (100 μg/mL), IL-2 10 ng/mL. Goat F(ab′)2 Anti-Human IgM-UNLB was obtained from SouthernBiotech. […]

| compound | IC50 |
| --- | --- |
| C=CC(=O)Nc1cccc(Oc2nc(Nc3ccc4c(ccn4CCF)c3)ncc2OC)c1 [Compound I-43a] | ≤ 10 nM |
| C=CC(=O)Nc1cccc(Oc2nc(Nc3cccc4c3CCN4CCOC)ncc2OC)c1 [Compound I-28a] | 10 to 100 nM |
| C=CC(=O)Nc1cccc(Oc2nc(Nc3ccc(N(C)[C@H]4CCN(CCF)C4)cc3)nc3[nH]ccc23)c1 [Compound I-26a] | 10 to 100 nM |
| C=CC(=O)Nc1cccc(Oc2nc(Nc3ccc4c(c3)CN(CCOC)C4)ncc2OC)c1 [Compound I-50a] | 10 to 100 nM |
| C=CC(=O)Nc1cccc(Oc2nc(Nc3ccc(OCCS(C)(=O)=O)cc3)ncc2OC)c1 [Compound I-44a] | ≤ 10 nM |
| C=CC(=O)Nc1cccc(Oc2nc(Nc3ccc(N(C)CCOC)cc3)nc3[nH]ccc23)c1 [Compound I-41a] | 10 to 100 nM |
| C=CC(=O)Nc1cccc(Nc2nc(Nc3ccc(N[C@@H]4CCN(CCF)C4)cc3)ncc2OC)c1 | ≤ 10 nM |
| C=CC(=O)Nc1cccc(Oc2nc(Nc3ccc(N(CCC)CCOC)cc3)ncc2OC)c1 [Compound I-38a] | 10 to 100 nM |

###

pIC50 values for the compounds below.
- System: Stat5 phosphorylation in NK-92 cells
- protocol-notes: Western blotting assay for Stat5
- Type: cell-based
- run-conditions: NK92, 1 hour, IL-2 stimulation, read-out: Stat5 inhibition
pIC50: −log10 of the molar value.

| compound | pIC50 |
| --- | --- |
| C=CC(=O)Nc1cccc(Oc2nc(Nc3ccc(OCCS(C)(=O)=O)cc3)ncc2OC)c1 [Compound I-44a] | 6.40 to 6.70 |
| C=CC(=O)Nc1cccc(Nc2nc(Nc3ccc(N[C@H]4CCN(CCF)C4)cc3)ncc2OC)c1 | ≤ 6.40 |
| C=CC(=O)Nc1cccc(Oc2nc(Nc3ccc4c(c3)CCN4C(C)=O)ncc2OC)c1 [Compound I-56a] | 6.40 to 6.70 |
| C=CC(=O)Nc1cccc(Oc2nc(Nc3ccc(N4CCN(CCOC)CC4)c(F)c3)nc3[nH]ccc23)c1 [Compound I-48a] | 6.40 to 6.70 |
| C=CC(=O)Nc1cccc(Nc2nc(Nc3ccc(OCCOC)cc3)nc3[nH]ccc23)c1 | ≤ 6.40 |
| C=CC(=O)Nc1cccc(Oc2nc(Nc3ccc(N4CCN(CCS(C)(=O)=O)CC4)cc3)ncc2OC)c1 [Compound I-54a] | ≤ 6.40 |
| C=CC(=O)Nc1cccc(Oc2nc(Nc3ccc(OCCOC)cc3)nc3[nH]ccc23)c1 | 6.40 to 6.70 |

###

- target: Btk (Tyr223) phosphorylation in Ramos cells (Homo sapiens)
- Construct: endogenous in cells; host or cells: Ramos cells (ATCC)
- protocol-notes: Western blotting assay for Btk (Example 73)
- Type: cell-based
- run-conditions: 45 min, 6 μg/mL anti-IgM, read-out: Btk Inhibition
- Description: All cell lines were obtained from the American Type Culture Collection and were maintained at 37° C. with 5% CO2. Ramos cell line was maintained in media supplemented with 10% fetal bovine serum, penicillin (100 units/mL) and streptomycin (100 μg/mL). NK-92 cell line was maintained in media supplemented with 10% fetal bovine serum and 10% horse serum, penicillin (100 units/mL) and streptomycin (100 μg/mL), IL-2 10 ng/mL. Goat F(ab′)2 Anti-Human IgM-UNLB was obtained from SouthernBiotech. […]
recorded-endpoint: IC50

| molecule | observed-measurement |
| --- | --- |
| C=CC(=O)Nc1cccc(Oc2nc(Nc3ccc(N4CCN(CCF)CC4)cc3)ncc2OC)c1 | ≤ 10 nM |
| C=CC(=O)Nc1cccc(Oc2nc(Nc3ccc(N4CCN(CCOC)CC4)c(F)c3)nc3[nH]ccc23)c1 [Compound I-48a] | ≤ 10 nM |
| C=CCN(CCOC)c1ccc(Nc2ncc(OC)c(Oc3cccc(NC(=O)C=C)c3)n2)cc1 [Compound I-39a] | 10 to 100 nM |
| C=CC(=O)Nc1cccc(Nc2nc(Nc3ccc(N4CCN(CCF)CC4)c(F)c3)ncc2OC)c1 | 10 to 100 nM |
| C=CC(=O)Nc1cccc(Oc2nc(Nc3ccc4c(c3)CCN4CCOC)ncc2OC)c1 [Compound I-34a] | ≤ 10 nM |
| C=CC(=O)Nc1cccc(Oc2nc(Nc3ccc(N4CCN(CCF)CC4)c(F)c3)ncc2OC)c1 | ≤ 10 nM |
| C=CC(=O)Nc1cccc(Oc2nc(Nc3ccc(N(C)[C@H]4CCN(CCOC)C4)cc3OC)ncc2OC)c1 [Compound I-55a] | ≥ 100 nM |
| C=CC(=O)Nc1cccc(Oc2nc(Nc3cc(F)c(OCCOC)c(F)c3)nc3[nH]ccc23)c1 [Compound I-37a] | 10 to 100 nM |
| C=CC(=O)Nc1cccc(Nc2nc(Nc3cccc4c3CCN4CCOC)ncc2OC)c1 [Compound I-29a] | ≥ 100 nM |
| C=CC(=O)Nc1cccc(Oc2nc(Nc3ccc(N(C)[C@H]4CCN(CCOC)C4)cc3)nc3[nH]ccc23)c1 [Compound I-49a] | ≤ 10 nM |
| C=CC(=O)Nc1cccc(Nc2nc(Nc3ccc(N[C@H]4CCN(CCOC)C4)cc3)ncc2OC)c1 [Compound I-31a] | ≤ 10 nM |
| C=CC(=O)Nc1cccc(Oc2nc(Nc3ccc(N[C@H]4CCN(CCOC)C4)cc3)nc3[nH]ccc23)c1 [Compound I-40a] | ≤ 10 nM |
| C=CC(=O)Nc1cccc(Oc2nc(Nc3ccc(N(C)[C@H]4CCN(S(C)(=O)=O)C4)cc3)nc3[nH]ccc23)c1 [Compound I-63a] | ≤ 10 nM |
| C=CC(=O)Nc1cccc(Oc2nc(Nc3ccc(N4CCN(C(C)=O)CC4)cc3)nc3[nH]cnc23)c1 [Compound I-68a] | 10 to 100 nM |
| C=CC(=O)Nc1cccc(Oc2nc(Nc3ccc4c(c3)CCN4C(C)=O)ncc2OC)c1 [Compound I-56a] | ≤ 10 nM |
| C=CC(=O)Nc1cccc(Oc2nc(Nc3ccc(N[C@H]4CCN(C(C)=O)C4)cc3)ncc2OC)c1 [Compound I-66a] | ≤ 10 nM |
| C=CC(=O)Nc1cccc(Oc2nc(Nc3ccc(N(C)[C@H]4CCN(CCOC)C4)cc3)ncc2OC)c1 [Compound I-42a] | ≤ 10 nM |
| C=CC(=O)Nc1cccc(Oc2nc(Nc3ccc(N(C)CCOC)nc3)nc3[nH]ccc23)c1 [Compound I-46a] | 10 to 100 nM |
| C=CC(=O)Nc1cccc(Oc2nc(Nc3ccc(N4CCN(CCOC)CC4)cc3)ncc2OC)c1 [Compound I-25a] | ≤ 10 nM |
| C=CC(=O)Nc1cccc(Nc2nc(Nc3ccc(N4CCN(CCF)CC4)cc3)ncc2OC)c1 | ≤ 10 nM |
| C=CC(=O)Nc1cccc(Oc2nc(Nc3ccc(N[C@H]4CCN(CCF)C4)cc3)ncc2F)c1 | ≤ 10 nM |
| C=CC(=O)Nc1cccc(Oc2nc(Nc3ccc(N(C4CC4)[C@H]4CCN(CCOC)C4)cc3)ncc2OC)c1 [Compound I-53a] | ≤ 10 nM |
| C=CC(=O)Nc1cccc(Oc2nc(Nc3ccc(N4CCN(CCS(C)(=O)=O)CC4)cc3)nc3[nH]cnc23)c1 [Compound I-69a] | 10 to 100 nM |
| C=CC(=O)Nc1cccc(Oc2nc(Nc3ccc4c(c3)CC(=O)N4CCOC)ncc2OC)c1 [Compound I-52a] | ≤ 10 nM |
| C=CC(=O)Nc1cccc(Nc2nc(Nc3ccc(OCCOC)cc3)nc3[nH]ccc23)c1 | 10 to 100 nM |
| C=CC(=O)Nc1cccc(Oc2nc(Nc3ccc(N(C)[C@H]4CCN(S(C)(=O)=O)C4)cc3)nc3[nH]cnc23)c1 [Compound I-71a] | ≤ 10 nM |
| C=CC(=O)Nc1cccc(Oc2nc(Nc3ccc(OCCOC)cc3)nc3[nH]ccc23)c1 | ≤ 10 nM |
| C=CC(=O)Nc1cccc(Oc2nc(Nc3ccc(N(CC)[C@H]4CCN(CCOC)C4)cc3)ncc2OC)c1 [Compound I-51a] | ≤ 10 nM |
| C=CC(=O)Nc1cccc(Oc2nc(Nc3ccc(N4CCN(C)CC4)cc3)ncc2OC)c1 | ≤ 10 nM |
| C=CC(=O)Nc1cccc(Oc2nc(Nc3ccc4c(c3)CCN4CCOC)nc3[nH]ccc23)c1 [Compound I-36a] | 10 to 100 nM |
